Just for reference, ChEMBL document CHEMBL3616390 is where these values come from.

target: Muscarinic acetylcholine receptor M2 (Homo sapiens) (UniProt P08172); experiment: Agonist activity at human muscarinic M2 receptor expressed in CHO cells after 30 mins by GTPgamma35S binding assay relative to acetylcholine; type: functional, cell-based
So basically: is Efficacy under 80%? Then Criterion met. Not under? Then Criterion not met.

CCCCCCOc1nsnc1C1=CCCN(C)C1 ... Criterion not met

Is the reported Efficacy for CO/N=C(\C#N)[C@H]1CN2CCC1CC2 strictly below 80%?
Criterion not met

Then what about the compound CN1CCCC/C1=N\c1ccc2c(c1)[C@@H](NC(=O)c1ccc(Br)cc1)[C@H](O)C2 ?
Criterion met

Then what about the compound CCn1nnc(C2=CCCN(C)C2)n1 ?
Criterion met

Then what about the compound C#CCO[C@H]1CN2CCC1CC2 ?
Criterion not met

* * *

experiment: Partition coefficient, log D of the compound; assay type: physicochemical; settings: octanol/water
measuredParameter: logD
Give bare numbers.

Field: logD. Fill in for each record below.
1. C/C(=N\c1ccc2c(c1)[C@@H](NC(=O)c1ccc(-c3ccccc3)cc1)[C@H](O)C2)N(C)Cc1ccc(F)cc1
2. CN1CCCC/C1=N\c1ccc2c(c1)[C@@H](NC(=O)c1ccc(Br)cc1)[C@H](O)C2
3. C/C(=N\c1ccc2c(c1)[C@@H](NC(=O)c1ccc(Br)cc1)[C@H](O)C2)NCc1ccc(F)cc1

2.3
1.04
2.01

* * *

Biological target: Muscarinic acetylcholine receptor M5 (Homo sapiens) (UniProt P08912)
Sequence (whole entry): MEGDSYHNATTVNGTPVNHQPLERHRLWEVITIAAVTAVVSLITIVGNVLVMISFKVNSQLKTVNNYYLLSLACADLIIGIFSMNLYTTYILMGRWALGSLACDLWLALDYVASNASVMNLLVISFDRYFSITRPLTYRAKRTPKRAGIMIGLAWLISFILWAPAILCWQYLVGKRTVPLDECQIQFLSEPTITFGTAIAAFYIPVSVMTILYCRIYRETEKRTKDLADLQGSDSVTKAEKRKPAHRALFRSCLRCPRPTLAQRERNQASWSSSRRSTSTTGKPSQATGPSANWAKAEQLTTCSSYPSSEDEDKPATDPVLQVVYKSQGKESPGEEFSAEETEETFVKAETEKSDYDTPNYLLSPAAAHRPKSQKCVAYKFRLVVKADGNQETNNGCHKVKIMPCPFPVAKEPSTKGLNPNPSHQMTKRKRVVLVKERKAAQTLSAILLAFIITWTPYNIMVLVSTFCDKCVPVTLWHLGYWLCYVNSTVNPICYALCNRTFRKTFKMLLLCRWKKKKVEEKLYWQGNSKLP
Experiment: Agonist activity at human muscarinic M5 receptor expressed in CHO cells after 30 mins by GTPgamma35S binding assay relative to acetylcholine
Assay type: functional, cell-based
Exercise: for every item that follows, state its recorded Efficacy.
One number for each entry, in %.

Below, each entry is followed by its recorded Efficacy result.
CC(=O)OCC[N+](C)(C)C ... 110
C#CCO[C@H]1CN2CCC1CC2 [TALSACLIDINE] ... 23.7

Field: Efficacy. Fill in for each record below.
1. CO/N=C(\C#N)[C@H]1CN2CCC1CC2 [SABCOMELINE]
2. CCCCCCOc1nsnc1C1=CCCN(C)C1

[38.9, 25.9]

* * *

Target: Muscarinic acetylcholine receptor M2 (Homo sapiens) (UniProt P08172)
Sequence (whole entry): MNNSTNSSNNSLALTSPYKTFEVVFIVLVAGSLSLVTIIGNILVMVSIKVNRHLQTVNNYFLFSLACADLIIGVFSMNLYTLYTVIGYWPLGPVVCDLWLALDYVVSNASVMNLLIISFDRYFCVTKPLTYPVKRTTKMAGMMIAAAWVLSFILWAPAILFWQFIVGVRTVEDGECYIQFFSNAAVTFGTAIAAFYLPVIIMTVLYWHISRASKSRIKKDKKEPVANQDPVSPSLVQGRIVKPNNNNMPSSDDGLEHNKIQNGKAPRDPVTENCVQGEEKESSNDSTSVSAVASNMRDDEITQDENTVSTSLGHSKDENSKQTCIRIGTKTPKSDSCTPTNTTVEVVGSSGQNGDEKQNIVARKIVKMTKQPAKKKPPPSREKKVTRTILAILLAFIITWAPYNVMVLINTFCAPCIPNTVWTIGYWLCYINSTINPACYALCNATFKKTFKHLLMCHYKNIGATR
Test: Agonist activity at human muscarinic M2 receptor expressed in CHO cells after 30 mins by GTPgamma35S binding assay relative to oxotremorine-M
Type: functional, cell-based
Exercise: for every item that follows, state its recorded Efficacy.
Answers are plain numbers, in %.

Below, each entry is followed by its recorded Efficacy result.
C/C(=N\c1ccc2c(c1)[C@@H](NC(=O)c1ccc(Br)cc1)[C@H](O)C2)N(C)Cc1ccc(F)cc1 ... 30.9
C/C(=N\c1ccc2c(c1)[C@@H](NC(=O)c1ccc(F)cc1)[C@H](O)C2)N(C)Cc1ccc(F)cc1 ... 43.6
COc1ccc(CCN/C(C)=N/c2ccc3c(c2)[C@@H](NC(=O)c2ccc(Br)cc2)[C@H](O)C3)cc1 ... 38.9

Read the next record carefully.
Efficacy lookup needed for C/C(=N\c1ccc2c(c1)[C@@H](NC(=O)c1ccc(C)cc1)[C@H](O)C2)N(C)Cc1ccc(F)cc1 , thanks.
45.1
